The measured values listed here are drawn from PubChem BioAssay (NCI).

Quick reference: TGI of the listed items.
# Tested on: NCI/ADR-RES ovarian
# protocol_text: NCI tumour cell line growth inhibition, 48 h

# annotated cases, reported TGI shown
{"compound": "O=C(Nc1ccc(Br)cc1)Nc1nn(C(=O)Nc2ccc(Br)cc2)c2ccccc12", "metric_name": "TGI", "reported": "> 100 µM"}
{"compound": "C=CCc1ccccc1C1CC2(C(=O)OC)OC1C(C(=O)OC)=C2C(=O)OC (stereo not drawn)", "metric_name": "TGI", "reported": "> 10 µM"}

Q: Which TGI is listed for `COc1cc(S(=O)(=O)Nc2ccc(-c3csc(/N=C\c4ccccc4)n3)cc2)ccc1Cl` ?
Result: > 100 µM

----------
# Tested on: MCF7 breast
# protocol_text: NCI tumour cell line growth inhibition, 48 h
metric_name: TGI

# annotated cases, reported TGI shown
{"structure_as_smiles": "CN(C)CCNC(=O)c1cc(NC(=O)c2cc(NC(=O)CC/C=C3/[C@@H]4CC[C@H]3N=N4)cn2C)cn1C", "assay_system": "MCF7 breast", "reported": "> 100 µM"}
{"structure_as_smiles": "COc1cc2oc(=O)cc(C)c2cc1OC", "assay_system": "MCF7 breast", "reported": "> 100 µM"}

Next item in the queue.
Q: Which TGI is listed for `Cc1ccc(/C=C2/NC(=S)SC2=O)cc1` ?
Result: > 100 µM

----------
# System: SF-295 CNS
# protocol_text: NCI tumour cell line growth inhibition, 48 h; in the data active = GI50 below about 0.43 µM; inactive = the rest
One label from this list, please: true (1) (active), false (0) (inactive)

Q: Which outcome did this test record for the compound CCC1(OC(=O)CN)C(=O)OCc2c1cc1n(c2=O)Cc2cc3cc4c(cc3nc2-1)OCO4 (stereo not given) ?
Result: true (1)

Q: Which outcome did this test record for the compound `Oc1c(CN2CCCC2)cc(CSCc2ccccc2)c2cccnc12` ?
Result: false (0)

Q: Which outcome did this test record for the compound `COC(=O)c1cc(-c2ccc(OC)cc2)[nH]c1N/N=C/c1c(Cl)cccc1Cl` ?
Result: true (1)

Q: Which outcome did this test record for the compound `COC(=O)c1ccc(CN2C(=O)C(Cl)=C(Nc3ccc(OC)c(Cl)c3)C2=O)cc1` ?
Result: false (0)

Q: Which outcome did this test record for the compound `Cn1cc(C2=C(c3cn(C)c4cc(N)ccc34)C(=O)NC2=O)c2ccccc21` ?
Result: false (0)

----------
# Test system: TK-10 renal
# protocol_text: NCI tumour cell line growth inhibition, 48 h
metric_name: GI50

# annotated cases, reported GI50 shown
{"structure_as_smiles": "COc1ccc(/C=C\\c2cc(OC)c(OC)c(OC)c2)c(NS(=O)(=O)c2ccc(Cl)cc2)c1O", "assay_system": "TK-10 renal", "GI50": "998 nM"}
{"structure_as_smiles": "CC(C)(C)n1cc(-c2ccnc(NCCCNS(=O)(=O)c3ccc(Br)cc3)c2)c(-c2cccc(O)c2)n1", "assay_system": "TK-10 renal", "GI50": "2510 nM"}

Q: What measured GI50 is associated with `Oc1c(Cl)cc(Cl)cc1Sc1cc(Cl)cc(Cl)c1O` on TK-10 renal?
Result: 3990 nM

----------
Quick reference: TGI of the listed items.
# System: HOP-62 NSCLC
# protocol_text: NCI tumour cell line growth inhibition, 48 h
# unit: µM | format: bare number

{"molecule": "CCN(CC)CCCC(C)Nc1cc(-c2ccccc2)nc2cc(OC)ccc12 (stereo not given)", "TGI [µM]": 19.4}
{"molecule": "CCCCN(CC)c1ncnc2ccc(Br)cc12", "TGI [µM]": 34}

Q: Which TGI is listed for `C[C@]12CC[C@H]3[C@@H](CC[C@]4(O)C[C@@H](O)CC[C@]34CO)[C@@]1(O)CC[C@@H]2C1=CC(=O)OC1` ?
Result: 3.89
